Entry source: patent US20030148956A1

system-under-test: CRF1R
assay-protocol: cell-based or functional assay
Ends that are not written are not given here.
readout-kind: CRF1R Emax

Below are worked cases with known answers.
1) ZGPPISIDLPTTLLRKMIEIEKQEKEKQQAANNRLLLDTI (C-terminal amide) [SEQ ID NO 42] : 10%
2) IVLSLDVPIGLLQILIEIEKQEKEKQQAANNARILARV-NH2 [SEQ ID NO 166] : 95%

Ask | So what's the measured CRF1R Emax for this one? ZGPPISIDLPINLLRKMIEIEKQEKEKQQAANNRLLLDTI (C-terminal amide) [SEQ ID NO 37]
Reply | 5%
